TESTED_TARGET: T1, NativeRPtag(large)_with_Tags_and_Cys (Thermoanaerobacter tengcongensis)
T1 construct: Unlabeled in anisotropy assays; coupled through the engineered N-terminal Cys to SulfoLink agarose or maleimide plates in column, pull-down and ELISA assays
T1 chain: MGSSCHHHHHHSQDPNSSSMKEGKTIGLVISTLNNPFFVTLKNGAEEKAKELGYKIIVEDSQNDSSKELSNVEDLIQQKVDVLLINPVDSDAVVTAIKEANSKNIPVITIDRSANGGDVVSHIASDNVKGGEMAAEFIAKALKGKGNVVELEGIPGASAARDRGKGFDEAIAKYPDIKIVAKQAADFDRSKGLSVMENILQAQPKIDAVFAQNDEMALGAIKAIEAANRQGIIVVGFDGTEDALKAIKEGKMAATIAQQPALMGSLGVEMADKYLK
PROTOCOL_DETAILS: fluorescence anisotropy; NiCl2 (100 mM)
No end group written: not given here. *: point of attachment. RhodamineB = CCN(CC)c1ccc2c(-c3ccccc3C(=O)*)c3ccc(=[N+](CC)CC)cc-3oc2c1
REPORTED_PROPERTY: Kd (nM)
The response must be a number in nM with no trailing unit.

Exercise: Which Kd reading was recorded for the binder RhodamineB-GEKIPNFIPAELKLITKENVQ (Synthetic peptide) [native RPtag(small)] ?
Solution: 3.2

Exercise: Which Kd reading was recorded for the binder RhodamineB-KIANFIPAELKLITKANVQ (also: also used unlabeled as competitor, Rhodamine labeled in the Kd assays; also called RPtag(small) (tight)) [RPtag(small) Nd2, p5a, e18a] ?
Solution: 2.2
